System: TTR
assay.summary: TTR editing in HEK293_Cas9 cells transfected with dgRNAs (Table 4)
Type: cell-based, human
conditions: HEK293_Cas9 cells (constitutively express Spy Cas9) transfected with dgRNAs
Let's look at some sequences and their measured Avg % Edit.
Write the answer as a number in %, unit excluded.

Known results for sequences:
1) AGACACCAAAUCUUACUGGA (tested as dual guide RNA, chemistry not given here) [CR003367] ... 47.11
2) AAAGUUCUAGAUGCUGUCCG (tested as dual guide RNA, chemistry not given here) [CR003346] ... 48.33
3) CUGAGGAGGAAUUUGUAGAA (tested as dual guide RNA, chemistry not given here) [CR003364] ... 35.65

With those in mind, consider the next sequence.
Data request: # input sequence: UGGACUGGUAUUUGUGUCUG (tested as dual guide RNA, chemistry not given here) [CR003340] ; wanted: its Avg % Edit
Data returned: 42.38
